Reported lowest phenotypically active concentration values are given for each entry in this list.
tested on: HepG2-TUBA1B-RELA; experiment: lowest phenotypically active concentration; higher = less potent; conditions: treatment time: 24 h
Counter-ions that a name gives are not always drawn.

Example results:
MOLECULE	EXPERIMENTAL_VALUE
O=C(Nc1ccccc1)N1CCN(c2nc(-c3ccccc3)ns2)CC1	9 µM
CC1CNCCN1S(=O)(=O)c1cccc2cnccc12 (stereo not given) [H-7 dihydrochloride]	9 µM
O=C(NCc1cccc(O)c1)Nc1nc(-c2ccncc2)cs1 [RKI 1447 dihydrochloride]	≤ 0.3 µM

Noted lowest phenotypically active concentration for C[C@H]1COCCN1c1cc(C2(S(=O)(=O)C3CC3)CC2)nc(-c2ccc(NC(=S)NCCO)cc2)n1 , tested on HepG2-TUBA1B-RELA: 1 µM

The recorded lowest phenotypically active concentration with HepG2-TUBA1B-RELA for Nc1ncnc2c1nc(Cl)n2C1O[C@H](CO)[C@@H](O)[C@H]1O (stereo not given in full) was 3 µM

The value of lowest phenotypically active concentration recorded for CCOC(=O)Nc1cc(-c2ccc(C)c(NS(C)(=O)=O)c2)nn2c(C)nnc12 when tested on HepG2-TUBA1B-RELA reads 1 µM

====

test system: WPMY1-TUBA1B-RELA; assay: phenotypically active (imaging signature differs from DMSO and reproducible) at any of 0.3-9 uM (binary (1 = active, 0 = inactive)); higher = active; details: treatment time: 24 h
Counter-ions that a name gives are not always drawn.
Bench note: report the call from active, inactive

Record excerpt, results attached:
COMPOUND	ASSIGNED_CATEGORY
O=C(O)C[C@H](O)C[C@H](O)/C=C/c1c(C2CC2)nc2ccccc2c1-c1ccc(F)cc1 [Pitavastatin calcium]	active
CCCCc1nc(Cl)c(CO)n1Cc1ccc(-c2ccccc2-c2nnn[nH]2)cc1 [losartan]	inactive
COc1ccc2c3c1O[C@H]1C[C@@H](O)C=C[C@@]31CCN(C)C2 [galantamine]	inactive
Cc1ccc(C(=O)Oc2ccc(C(O)CNC(C)(C)C)cc2OC(=O)c2ccc(C)cc2)cc1 (configuration not stated) [bitolterol]	inactive
COC(=O)Nc1nc2ccc(C(=O)c3cccs3)cc2[nH]1 [Nocodazole]	active

Exercise: Hi, sorry to bother you, what did the test record for Cc1c(C(=O)N2CCOc3ccc(-c4ccc(N)nc4)cc3C2)ccc(S(C)(=O)=O)c1F ?
Key: active

Exercise: Field: outcome | Entry: Cc1cc(Nc2cc(C)c(C#N)c(NC(C)CCCC(C)(C)O)n2)n[nH]1 (configuration not stated) [TC-A 2317 hydrochloride]
Key: active

Exercise: Any idea what this test logged for C=CC(=O)Nc1cccc(Nc2nc(Nc3ccc(OCCOC)cc3)ncc2F)c1 ?
Key: active

====

system: A549-TP53BP1-CLTA; assay: phenotypically active (imaging signature differs from DMSO and reproducible) at any of 0.3-9 uM (binary (1 = active, 0 = inactive)); higher = active; conditions: treatment time: 24 h
PARAMETER: phenotypically active
Give a plain numeric answer without units written out.

# annotated cases, reported phenotypically active shown
COMPOUND	TESTED_ON	PARAMETER	EXPERIMENTAL_VALUE
CC(=O)N[C@@H]1[C@@H](O[C@H](C)C(=O)O)[C@H](O)[C@@H](CO)O[C@@H]1O	A549-TP53BP1-CLTA	phenotypically active	0
C#C[C@]1(O)CC[C@H]2[C@@H]3CCC4=CCCC[C@@H]4[C@H]3C(=C)C[C@@]21CC	A549-TP53BP1-CLTA	phenotypically active	0

For record NCCCC[C@H](N[C@@H](CCc1ccccc1)C(=O)O)C(=O)N1CCC[C@H]1C(=O)O the listed phenotypically active is 0

// sample Clc1ccc(N/N=C(\c2ccccc2)c2ccccn2)nc1 , its phenotypically active was 1

COc1ccc(C[C@H](C)NC[C@@H](O)c2ccc(O)c(NC=O)c2)cc1 yielded phenotypically active of 0

Lookup result for CCC1(c2ccccc2)NC(=O)N(C)C1=O (centres undefined) ; measured phenotypically active: 0

Data point: COc1ccc(CNC(=O)Nc2ncc([N+](=O)[O-])s2)cc1 ; phenotypically active = 1

Kindly note the recorded phenotypically active for Cc1ccccc1Sc1ccc(/C=C2/SC(=S)NC2=O)cc1[N+](=O)[O-] , which is 0

Value of phenotypically active reported for the compound CCN1C(C)(C)CC(Oc2ccc(C(=O)Nc3ccc(NC(=O)Nc4cc(C(C)(C)C)on4)cc3)nc2)CC1(C)C is 0

The measured values listed here are drawn from the supplement of paper PMC7411054.
